# Lookup of reported fold ctrl, IFNγ release, PBMC D840 keyed by entry
Target: T1, human IL12Rβ2, cell-expressed (human, UniProt Q99665 24-862)
T1 sequence (looked up): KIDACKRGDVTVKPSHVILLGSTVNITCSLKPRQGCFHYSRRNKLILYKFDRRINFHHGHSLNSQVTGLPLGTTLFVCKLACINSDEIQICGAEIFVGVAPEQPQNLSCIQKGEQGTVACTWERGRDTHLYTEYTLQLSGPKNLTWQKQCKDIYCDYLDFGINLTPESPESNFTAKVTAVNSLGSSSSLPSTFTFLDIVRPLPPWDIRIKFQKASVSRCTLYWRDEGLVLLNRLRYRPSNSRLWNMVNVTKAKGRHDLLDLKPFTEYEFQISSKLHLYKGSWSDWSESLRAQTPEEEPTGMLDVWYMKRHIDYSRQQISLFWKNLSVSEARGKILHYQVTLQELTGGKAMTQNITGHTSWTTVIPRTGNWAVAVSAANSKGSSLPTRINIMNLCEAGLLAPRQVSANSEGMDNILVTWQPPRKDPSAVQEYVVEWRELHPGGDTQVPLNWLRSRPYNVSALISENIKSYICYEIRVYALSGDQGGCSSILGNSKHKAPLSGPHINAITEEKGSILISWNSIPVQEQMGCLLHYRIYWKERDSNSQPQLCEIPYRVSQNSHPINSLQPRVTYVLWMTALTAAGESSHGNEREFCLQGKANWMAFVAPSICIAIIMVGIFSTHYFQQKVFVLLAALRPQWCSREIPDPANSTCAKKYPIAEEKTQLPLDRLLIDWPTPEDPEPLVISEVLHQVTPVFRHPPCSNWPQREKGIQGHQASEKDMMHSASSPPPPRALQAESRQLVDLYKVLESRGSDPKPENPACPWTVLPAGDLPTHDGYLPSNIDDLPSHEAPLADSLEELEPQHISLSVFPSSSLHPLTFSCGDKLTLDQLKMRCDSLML
Assay: cell-based or functional assay
// units = fold; emit number, no label

Sample records with fold ctrl, IFNγ release, PBMC D840:
IL12Rb2#1-35GS-CD4#8 (bispecific antibody, defined by its make-up (Nb1-Nb2)) EVQLVESGGRLVQAGDSLRLSCAASGRTFISYRMGWFRQAPGKEREFVAALRWSSSNIDYTYYADSVKGRFSISGDYAKNTVYLQMNSLKAEDTAVYYCAASTRWGVMESDTEYTSWGQGTLVTVSSGGGGSGGGGSGGGGSGGGGSGGGGSGGGGSGGGGSEVQLVESGGGSVQPGGSLTLSCGTSGRTFNVMGWFRQAPGKEREFVAAVRWSSTGIYYTQYADSVKSRFTISRDNAKNTVYLEMNSLKPEDTAVYYCAADTYNSNPARWDGYDFRGQGTLVTVSS; 11
CD4#8-35GS-IL12Rb2#2 (bispecific antibody, defined by its make-up) EVQLVESGGGSVQPGGSLTLSCGTSGRTFNVMGWFRQAPGKEREFVAAVRWSSTGIYYTQYADSVKSRFTISRDNAKNTVYLEMNSLKPEDTAVYYCAADTYNSNPARWDGYDFRGQGTLVTVSSGGGGSGGGGSGGGGSGGGGSGGGGSGGGGSGGGGSEVQLVESGGRLVQAGDSLRLSCAASGRTFTSYRMGWFRQAPGKEREFVSALRWSSGNIDYTYYADSVKGRFSISGDYAKNTVYLQMNSLKAEDTAVYYCAASTRWGVMESDTEYTSWGQGTLVTVSS; 8

QUERY: Give reported fold ctrl, IFNγ release, PBMC D840 value for CD4#8-35GS-IL12Rb2#1 (bispecific antibody, defined by its make-up) EVQLVESGGGSVQPGGSLTLSCGTSGRTFNVMGWFRQAPGKEREFVAAVRWSSTGIYYTQYADSVKSRFTISRDNAKNTVYLEMNSLKPEDTAVYYCAADTYNSNPARWDGYDFRGQGTLVTVSSGGGGSGGGGSGGGGSGGGGSGGGGSGGGGSGGGGSEVQLVESGGRLVQAGDSLRLSCAASGRTFISYRMGWFRQAPGKEREFVAALRWSSSNIDYTYYADSVKGRFSISGDYAKNTVYLQMNSLKAEDTAVYYCAASTRWGVMESDTEYTSWGQGTLVTVSS
RESULT: 8

QUERY: Give reported fold ctrl, IFNγ release, PBMC D840 value for IL12Rb2#2-35GS-CD4#8 (bispecific antibody, defined by its make-up) EVQLVESGGRLVQAGDSLRLSCAASGRTFTSYRMGWFRQAPGKEREFVSALRWSSGNIDYTYYADSVKGRFSISGDYAKNTVYLQMNSLKAEDTAVYYCAASTRWGVMESDTEYTSWGQGTLVTVSSGGGGSGGGGSGGGGSGGGGSGGGGSGGGGSGGGGSEVQLVESGGGSVQPGGSLTLSCGTSGRTFNVMGWFRQAPGKEREFVAAVRWSSTGIYYTQYADSVKSRFTISRDNAKNTVYLEMNSLKPEDTAVYYCAADTYNSNPARWDGYDFRGQGTLVTVSS
RESULT: 30

These entries and their values trace back to patent US20160251440A1.
